# TARGET_DESC: Receptor tyrosine-protein kinase erbB-2 (Homo sapiens) (UniProt P04626)
# Sequence (P04626 whole entry, looked up): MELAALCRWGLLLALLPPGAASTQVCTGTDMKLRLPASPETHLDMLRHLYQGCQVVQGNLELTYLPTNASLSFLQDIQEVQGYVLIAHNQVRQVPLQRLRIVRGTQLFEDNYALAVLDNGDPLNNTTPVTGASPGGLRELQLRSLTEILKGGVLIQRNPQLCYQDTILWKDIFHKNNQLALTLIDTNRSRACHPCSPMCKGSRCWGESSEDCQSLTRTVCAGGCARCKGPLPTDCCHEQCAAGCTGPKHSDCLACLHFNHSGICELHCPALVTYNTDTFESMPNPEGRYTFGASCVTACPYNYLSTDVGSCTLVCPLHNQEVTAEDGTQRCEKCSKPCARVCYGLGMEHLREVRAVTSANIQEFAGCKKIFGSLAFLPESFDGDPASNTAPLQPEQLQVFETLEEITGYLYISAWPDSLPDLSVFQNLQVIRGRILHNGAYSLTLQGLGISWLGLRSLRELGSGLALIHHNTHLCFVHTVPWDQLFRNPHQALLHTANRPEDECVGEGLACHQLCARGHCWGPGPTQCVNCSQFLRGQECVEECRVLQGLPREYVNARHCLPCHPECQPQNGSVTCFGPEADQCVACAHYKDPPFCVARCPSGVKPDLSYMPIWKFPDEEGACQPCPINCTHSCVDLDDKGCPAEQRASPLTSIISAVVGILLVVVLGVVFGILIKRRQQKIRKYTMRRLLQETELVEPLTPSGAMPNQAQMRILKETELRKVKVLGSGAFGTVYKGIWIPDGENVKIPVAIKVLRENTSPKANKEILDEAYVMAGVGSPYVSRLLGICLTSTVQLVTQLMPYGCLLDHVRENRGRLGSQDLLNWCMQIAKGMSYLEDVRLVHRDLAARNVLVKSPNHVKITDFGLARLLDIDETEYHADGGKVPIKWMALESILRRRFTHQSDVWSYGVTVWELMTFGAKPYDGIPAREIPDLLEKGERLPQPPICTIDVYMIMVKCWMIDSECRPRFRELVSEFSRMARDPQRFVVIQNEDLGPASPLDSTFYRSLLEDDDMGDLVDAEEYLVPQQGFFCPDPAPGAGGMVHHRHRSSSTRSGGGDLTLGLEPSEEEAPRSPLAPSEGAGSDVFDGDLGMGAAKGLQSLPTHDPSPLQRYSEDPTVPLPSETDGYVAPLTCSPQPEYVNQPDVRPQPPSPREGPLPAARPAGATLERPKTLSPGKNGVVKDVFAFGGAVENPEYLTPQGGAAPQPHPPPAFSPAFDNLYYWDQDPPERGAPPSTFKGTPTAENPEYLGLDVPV
# METHOD_NOTES: reducers of endogenous Her2 protein level, primary screen, SKBR3 breast tumor cells, AlphaScreen, ATP viability (AID 461);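 further: lower value means less Her2 protein in the cells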
# EXPERIMENTAL_CONTEXT: 18-24 h, at 10 µM, active compounds read low
The source made the active and inactive calls.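 How the source made its calls: active means Her2 level under about 52% in both replicate screens, with viability over 70% of control (limit read from the data); inconclusive means Her2 under the limit in one screen only, or viability under 70%; inactive means Her2 level above the set limit.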
Recorded Her2 level by entry

CCC(=O)Nc1ccc(Cl)c(NC(=O)C(C)C)c1
80% (inactive)
Cc1c2c(nc3nc4ccccc4n13)CC(C)(C)CC2=O
100% (inactive)
CC1(C)Cc2cccc(OCC(O)CN3CCN(c4ccccn4)CC3)c2O1 (stereo not given)
94% (inactive)
CC1=CC2=C(OC1N(C)C)c1cccc3cccc(c13)C2=O (stereo not given)
65% (inactive)
C=CCn1c(Cc2cccs2)nnc1SCC(=O)Nc1ccc(OC)c(OC)c1
109% (inactive)
COC(=O)CCCCCNc1ccc(C(=O)OC)cc1N
86% (inactive)
CC(C)CCNC(=O)C1CCN(C(=O)N(C)C)CC1
125% (inactive)
COc1cccc(NC(=O)N[C@@H](Cc2ccccc2)C(=O)O)c1
91.5% (inactive)

Her2 level measured on CCOC(=O)Cn1c(=N)n(CCOc2cccc(C)c2)c2ccccc21 = 106% (inactive)

Her2 level measured on CC1CCN(S(=O)(=O)c2ccc3[nH]cc(C(=O)NCCN4CCOCC4)c(=O)c3c2)CC1 = 104% (inactive)

Her2 level measured on O=C1CC(c2cccc(Cl)c2)Cc2nc(N3CCN(c4ccccc4)CC3)ncc21 (stereo not given) = 118% (inactive)

Her2 level measured on O=C1NC(c2ccccc2)(C(F)(F)F)SC2=CCCCCN12 (stereo not given) = 106% (inactive)

Her2 level measured on COc1ccc(N2CCN(CCCNC(=O)C3CCCN(S(=O)(=O)c4cnc[nH]4)C3)CC2)cc1 (stereo not given) = 102% (inactive)

Her2 level measured on Fc1ccccc1-c1nc(-c2ccccc2)no1 = 69% (inactive)

Her2 level measured on CC(C)Cc1nc(S(=O)(=O)c2ccc(Cl)cc2)c(N2CCOCC2)o1 = 94.5% (inactive)

Her2 level measured on COCCn1c(SCC(=O)c2ccccc2)nc2c(c1=O)SC(C)C2 (stereo not given) = 106% (inactive)
